This listing pairs binders with measured Kd.
Target system: HIV broadly neutralizing antibody 2G12
Protocol details: radiolabelled glycopeptide with 2G12 in solution, protein G bead capture, scintillation counting
Primed or numbered codes have the meaning given here. Where no end group is shown, it is not given here. [ ]: non-standard residue; d: D form. The star is where a group is joined. Hpra′ = its azide, alkyne or alkene has reacted where a group follows in round brackets; Man9″ = Man9 glycan attached to Hpg by CuAAC click with Man9-azide; Man9(3) = Man9-azide click-glycosylated onto Hpg; For = O=C*
Quantity name: Kd

- For-[Hpra′](Man9(3))[Hpra′](Man9(3))AALK[Hpra′](Man9(3))QVTD[Hpra′](Man9(3))YALALFHRILGSGSLGHHHHHHRDYKDDDDK [glycopeptide 10F2-Δ11]: 0.89 nM
- For-[Hpra′](Man9(3))RSIPWYTYRWLPNGSGSLGHHHHHHRDYKDDDDK [glycopeptide 10V1-Δ9]: 7.5 nM
- glycopeptide 10F9 (Fixed library, round 10) (peptide) peptide: For-[Hpra′](Man9(3))RSTLNSLEYR[Hpra′](Man9(3))QYATEDPRIR[Hpra′](Man9(3))ASIPYTYWWPGSGSLGHHHHHHRDYKDDDDK: 3.1 nM
- glycopeptide 10V1 (Variable library, round 10) (peptide) peptide: For-[Hpra′](Man9(3))ATKTNCKREKT[Hpra′](Man9(3))DNHVTI[Hpra′](Man9(3))RSIPWYTYRWLPNGSGSLGHHHHHHRDYKDDDDK: 1.9 nM
- glycopeptide 10F8 (Fixed library, round 10) (peptide) peptide: For-[Hpra′](Man9(3))LLK[Hpra′](Man9(3))VDQSRL[Hpra′](Man9(3))PVPGIGVTLH[Hpra′](Man9(3))RSIPYSYLPIGSGSLGHHHHHHRDYKDDDDK: 2.6 nM
- glycopeptide 10F5-C10,25S (peptide) peptide: For-[Hpra′](Man9(3))SPHLPVLLSK[Hpra′](Man9(3))VLNDGRRIVQ[Hpra′](Man9(3))SSELP[Hpra′](Man9(3))VRRSGSGSLGHHHHHHRDYKDDDDK: 2.5 nM
- For-[Hpra′](Man9(3))VLNDGRRIVQ[Hpra′](Man9(3))SCELP[Hpra′](Man9(3))VRRSGSGSLGHHHHHHRDYKDDDDK [glycopeptide 10F5-Δ11]: > 200 nM
- glycopeptide 10F3 (Fixed library, round 10) (peptide) peptide: For-[Hpra′](Man9(3))DTLHLKQIGG[Hpra′](Man9(3))PNCITQQDVR[Hpra′](Man9(3))TSIPYTYTWPGSGSLGHHHHHHRDYKDDDDK: 3 nM
- glycopeptide 10F12-C2,21S (peptide) peptide: For-[Hpra′](Man9″)SYVTVIPA[Hpra′](Man9″)N[Hpra′](Man9″)PEARLGIVSH[Hpra′](Man9″)PGIRRGKALYGSGSLGHHHHHHRDYKDDDDK: 186 nM
